Data provenance is ChEMBL document CHEMBL5236642.

Reported half-life values for the following molecules.
- procedure_summary: Half-life in Sprague-Dawley rat at 1 mg/kg, iv
- Type: ADME, organism-based
- run_conditions: in vivo
assay_metric: half-life (h)

test_smiles=O=C(CNc1cc(Cl)cc(Cl)c1)N1CC[C@H]2CCN(c3ncnc4[nH]ccc34)[C@H]2C1 endpoint_unit=h number=0.9
test_smiles=C[C@@H]1[C@H](Nc2ncnc3[nH]ccc23)CCCN1C(=O)CNc1cc(Cl)cc(Cl)c1 endpoint_unit=h number=5.3

---

- procedure_summary: Half-life in rat at 2 mg/kg, iv
- Type: ADME, organism-based
- run_conditions: in vivo
assay_metric: half-life (h)

test_smiles=O=C(CNc1cc(Cl)cc(Cl)c1)N1CCC[C@@H](Nc2ncnc3[nH]ccc23)C1 assay_metric=half-life number=13.3
